subject.of.test: UniProt:O88867
Sequence (O88867 whole entry): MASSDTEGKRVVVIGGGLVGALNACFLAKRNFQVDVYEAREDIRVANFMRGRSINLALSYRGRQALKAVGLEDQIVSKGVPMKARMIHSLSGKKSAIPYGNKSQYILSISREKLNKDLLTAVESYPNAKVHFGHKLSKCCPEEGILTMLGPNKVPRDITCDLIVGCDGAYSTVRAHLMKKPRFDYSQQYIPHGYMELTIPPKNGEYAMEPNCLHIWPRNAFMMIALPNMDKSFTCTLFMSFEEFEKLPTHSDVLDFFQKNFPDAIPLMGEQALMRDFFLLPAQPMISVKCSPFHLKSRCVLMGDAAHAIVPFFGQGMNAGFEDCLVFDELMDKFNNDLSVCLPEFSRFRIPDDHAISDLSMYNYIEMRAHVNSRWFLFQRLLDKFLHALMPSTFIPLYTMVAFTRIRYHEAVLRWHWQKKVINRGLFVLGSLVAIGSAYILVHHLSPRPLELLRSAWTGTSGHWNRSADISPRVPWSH
method.description: Inhibition of Kynurenine-3-hydroxylase enzyme isolated from the rat liver
property.name: IC50 (nM)

- O=C(O)C(=O)CC(=O)c1cccc(Br)c1: 1700
- COC(=O)C(=O)CC(=O)c1ccc(Br)cc1: 1900
- COC(=O)C(=O)CC(=O)c1ccc(Cl)c(Cl)c1: 1900
- COC(=O)C(=O)CC(=O)c1cccc(Cl)c1: 1900
